Reported inhibition is given for each of the following molecules.
Test: HIV Vif self-association inhibitors, primary screen, imaging, HEK293T, single point (AID 602346)
Settings: HEK293T cells, Vif self-association by quenched fluorescence, 24 h, at 7.49 µM, active compounds read high
Hit rate of the full screen: of about 340,000 compounds, about 1,200 (0.35%) were called active. Only a selection was taken, and actives are over-represented in it overall.
The reply should be a number in %, with the unit left off.

MOLECULE	ENDPOINT NAME	RECORDED NUMBER
Cc1ccc(-c2cnc(C(O)c3cc(Cl)cc(Cl)c3)[nH]2)cc1 (centres undefined)	inhibition	-6.84
Cc1cccnc1C(NC(=O)C1CCN(Cc2ccc(Cl)c(Cl)c2)CC1)c1ccc(Cl)cc1 (centres undefined)	inhibition	11.5
Cc1cc(Cl)ccc1-c1nc(NCCN(C)C)nc2ccsc12	inhibition	-1.21

O=C(Nc1ccc2oc(-c3ccccc3F)nc2c1)c1ccco1 yielded inhibition of 4.71

COc1ccc(C2C(C(C)=O)=C(O)C(=O)N2CCc2c[nH]c3ccccc23)cc1 (centres undefined) yielded inhibition of -11.5

O=C(NCc1cccnc1)c1cc(C2CCCCN2C(=O)CCc2ccccc2)on1 (centres undefined) yielded inhibition of -0.0335

COc1cccc(-n2c(SCC(=O)c3c[nH]c4ccccc34)nc3ccccc3c2=O)c1 yielded inhibition of -2.01

COc1ccc(/C=C(\C#N)c2c[nH]c3ccccc23)cc1 yielded inhibition of 52.1

O=C(Nc1ccc2oc(-c3ccc4ccccc4c3)nc2c1)c1cccs1 yielded inhibition of 52.2

----------
Reported inhibition is given for each of the following compounds.
Experiment: HIV Vif self-association inhibitors, primary screen, imaging, HEK293T, single point (AID 602346)
Conditions: HEK293T cells, Vif self-association by quenched fluorescence, 24 h, at 7.49 µM, active compounds read high
In all, about 340,000 compounds went through this assay and about 1,200 (0.35%) were called active. This excerpt belongs to a sample that is enriched for actives.
The reply should be a number in %, with the unit left off.

COMPOUND	inhibition [%]
CCCNC(=O)C1(C)CCN(Cc2ccc(Cl)c(Cl)c2)C1 (stereo unspecified)	3.78
Oc1cccc2cc(-c3ccncc3)cnc12	11.1
CC(=O)Nc1ccc(CNc2nc(NCCN(C)C)nc3cc(-c4ccccc4)sc23)cc1	-16

CC(OC(=O)c1ccc(Cl)cc1O)C(=O)NCCC1=CCCCC1 (stereo unspecified) yielded inhibition of 11.7

CCCN(CCC)c1nc2c(C)cccn2c(=O)c1/C=C1/SC(=S)N(Cc2ccco2)C1=O yielded inhibition of 146

----------
Reported inhibition is given for each of the following compounds.
Experiment: HIV Vif self-association inhibitors, primary screen, imaging, HEK293T, single point (AID 602346)
Conditions: HEK293T cells, Vif self-association by quenched fluorescence, 24 h, at 7.49 µM, active compounds read high
Screen size: about 340,000 compounds; about 1,200 (0.35%) were called active. The list comes from a sample in which actives are over-represented; it also holds close analogues and randomly drawn compounds.
The reply should be a number in %, with the unit left off.

COMPOUND	inhibition (%)
C[C@H]([C@@H](O)[C@@H](O)[C@@H](C)C(C)(C)C)[C@H]1CC[C@H]2C3CC[C@H]4C[C@H](OS(=O)(=O)O)[C@@H](OS(=O)(=O)O)C[C@]4(C)[C@H]3CC[C@]12C (stereo partly specified)	9.95

CC(C)N(C(=O)[C@H]1C[C@H](CC(=O)NCCC2=CCCCC2)C(=O)N2CCc3c([nH]c4cc(CCC(=O)N(C)C)ccc34)[C@]12C)C(C)C yielded inhibition of 0.666

CN1CCN(/N=C/c2ccc(-c3ccc([N+](=O)[O-])cc3)o2)CC1 yielded inhibition of -7.47

C=C(C)C(=O)O[C@H]1C/C(C)=C\C(=O)/C=C(\C)[C@H](O)[C@@H]2OC(=O)C(=C)[C@@H]21 yielded inhibition of 136

COc1ccc(C(NC(=O)C2CCN(CCCc3ccccc3)CC2)c2cccs2)cc1 (stereo unspecified) yielded inhibition of 14.2

CCOC(=O)[C@H]1Nc2ccc(Cl)cc2[C@@H]2[C@H]1C1CC(c3ccccc31)N2C(=O)OCc1ccccc1 (stereo partly specified) yielded inhibition of 2.38

CCN(CC)CCCC(C)n1c2nc(=O)[nH]c(=O)c-2nc2cc(Cl)ccc21 (stereo unspecified) yielded inhibition of 128

COc1ccc(/C=C/C(=O)c2c(O)cc(OC)cc2OC)cc1 yielded inhibition of -16.7

N#Cc1cc([N+](=O)[O-])ccc1Oc1cccc(/C=N/NC(=O)c2ccc(Cl)cc2)c1 yielded inhibition of -18.6

Cc1cc(=O)[nH]c(SCC(=O)Nc2ccc(Br)cc2)n1 yielded inhibition of -3.77

O=C1CCCN2N=C(SCC(=O)Nc3ccc(Br)cc3)SC2=N1 yielded inhibition of 59.2

Cc1cc2nc(-c3ccc(Cl)cc3)c(Cc3cccc(F)c3)n2c(C)c1Br yielded inhibition of 16.2
